Numbers sourced from patent US9017681B2.

Biological target: human sAC (Homo sapiens, UniProt Q96PN6)
Construct: made in house
Assay: in vitro adenylyl cyclase assay with purified human sAC protein (cAMP by Correlate-EIA)
Type: biochemical
Settings: 100 μM of compound; BASAL human sAC in vitro activity; read-out: % Inhibition (100 μM), hsACt-Basal
inhibition at 100 µM overview
The reply should consist of the numeric value with the unit placed after it.

Smiles entry: O=C(CSc1nc2ccccc2[nH]1)N/N=C/c1cc(Br)ccc1O
Observed measurement: 100%
//
Smiles entry: C/C(=N\NC(=O)CSc1nc2ccccc2[nH]1)c1ccc(Cl)cc1
Observed measurement: 90%
//
Smiles entry: O=C(CSc1nc2ccccc2[nH]1)N/N=C/c1ccc(Cl)cc1Cl
Observed measurement: 90%
//
Smiles entry: CC(C)c1ccc(/C=N/NC(=O)CSc2nc3ccccc3[nH]2)cc1
Observed measurement: 50%
//
Smiles entry: O=C(CSc1nc2ccccc2[nH]1)N/N=C/c1cccc(Br)c1
Observed measurement: 70%

Supply measured inhibition at 100 µM of `O=C(CSc1nc2ccccc2[nH]1)N/N=C/c1ccccc1I` in your reply.
90%

Supply measured inhibition at 100 µM of `Cn1c(SCC(=O)N/N=C/c2cc(Br)ccc2O)nc2ccccc21` in your reply.
75%

Supply measured inhibition at 100 µM of `O=C(CSc1nc2ccccc2[nH]1)N/N=C/c1ccc(Cl)c([N+](=O)[O-])c1` in your reply.
50%

Supply measured inhibition at 100 µM of `CCN(CC)c1ccc(/C=N/NC(=O)CSc2nc3ccccc3[nH]2)cc1` in your reply.
80%

----------
Target: human sAC (Homo sapiens, UniProt Q96PN6)
Construct: made in house
Test: cellular cAMP accumulation assay in 4-4 cells (hsACt stably transfected into 293T), IBMX
Assay type: cell-based
Conditions: stable cell line overexpressing human sAC; 500 μM IBMX; read-out: 4-4, Basal approximate IC50 (or the dose range where the IC50 should lie)
pIC50: −log10 of the molar value.
pIC50 overview

// solved cases for pIC50 follow
Compound: C/C(=N\NC(=O)CSc1nc2ccccc2[nH]1)c1ccc(Br)cc1
Endpoint: pIC50
Observed measurement: 3.92 to 4.22
--
Compound: O=C(CSc1nc2ccccc2[nH]1)N/N=C/c1cc(Br)ccc1O
Endpoint: pIC50
Observed measurement: 3.92 to 4.22
--
Compound: COc1cc(/C(C)=N\NC(=O)CSc2nc3ccccc3[nH]2)ccc1O
Endpoint: pIC50
Observed measurement: 3.78 to 4.25
--
Compound: C/C(=N\NC(=O)CSc1nc2ccccc2[nH]1)c1ccc(Cl)cc1
Endpoint: pIC50
Observed measurement: 4.22 to 4.52

Supply measured pIC50 of CC(Sc1nc2ccccc2[nH]1)C(=O)N/N=C/c1ccc([N+](=O)[O-])cc1 (centres unmarked) in your reply.
4.52

----------
Biological target: human sAC (Homo sapiens, UniProt Q96PN6)
Construct: made in house
Sequence (Q96PN6 1-469 limits assumed): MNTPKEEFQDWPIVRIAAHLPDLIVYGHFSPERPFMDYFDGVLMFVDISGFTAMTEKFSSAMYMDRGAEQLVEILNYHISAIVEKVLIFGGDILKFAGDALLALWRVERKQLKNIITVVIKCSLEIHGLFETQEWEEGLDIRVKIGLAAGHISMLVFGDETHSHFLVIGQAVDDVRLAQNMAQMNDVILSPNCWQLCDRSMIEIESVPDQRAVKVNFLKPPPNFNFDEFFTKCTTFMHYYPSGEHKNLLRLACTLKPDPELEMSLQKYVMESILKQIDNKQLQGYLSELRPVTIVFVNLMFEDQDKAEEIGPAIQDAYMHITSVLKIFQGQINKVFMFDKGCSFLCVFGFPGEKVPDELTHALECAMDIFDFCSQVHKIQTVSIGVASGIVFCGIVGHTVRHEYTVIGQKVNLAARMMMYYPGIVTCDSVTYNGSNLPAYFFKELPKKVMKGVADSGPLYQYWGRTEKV
Test: in vitro adenylyl cyclase assay with purified human sAC protein (cAMP by Correlate-EIA)
Format: biochemical
Details: stimulated activity of human sAC in vitro (calcium and bicarbonate stimulated); read-out: hsACt-Stim. approximate IC50 (or the dose range where the IC50 should lie)
Endpoint: IC50

// solved cases for IC50 follow
Molecule: C/C(=N/NC(=O)CSc1nc2ccccc2[nH]1)c1ccc(Cl)c(Cl)c1
Target of assay: human sAC (Homo sapiens, UniProt Q96PN6)
IC50: 10 to 100 µM
--
Molecule: O=C(CSc1nc2ccccc2[nH]1)N/N=C/c1cc(I)cc(I)c1O
Target of assay: human sAC (Homo sapiens, UniProt Q96PN6)
IC50: 0.1 to 1 µM
--
Molecule: C/C(=N\NC(=O)CSc1nc2ccccc2[nH]1)c1ccc(Cl)cc1
Target of assay: human sAC (Homo sapiens, UniProt Q96PN6)
IC50: 10 to 100 µM
--
Molecule: Cn1c(SCC(=O)N/N=C/c2cc(Br)ccc2O)nc2ccccc21
Target of assay: human sAC (Homo sapiens, UniProt Q96PN6)
IC50: 1 to 10 µM
--
Molecule: Cc1ccc(Cn2c(SCC(=O)N/N=C/c3cc(Br)ccc3O)nc3ccccc32)cc1
Target of assay: human sAC (Homo sapiens, UniProt Q96PN6)
IC50: 1 µM

Supply measured IC50 of `O=C(CSc1nc2ccccc2[nH]1)N/N=C/c1ccc(O)c(O)c1` in your reply.
1 to 10 µM

Supply measured IC50 of `O=C(CSc1nc2ccccc2[nH]1)N/N=C/c1cccc(Br)c1` in your reply.
10 to 100 µM

Supply measured IC50 of `COc1ccc(/C=N/NC(=O)CSc2nc3ccccc3[nH]2)cc1Br` in your reply.
10 to 100 µM

Supply measured IC50 of `C/C(=N/NC(=O)CSc1nc2ccccc2[nH]1)c1ccc(F)cc1` in your reply.
> 100 µM

Supply measured IC50 of `O=C(CSc1nc2ccccc2[nH]1)N/N=C/c1ccc(C(F)(F)F)cc1` in your reply.
> 100 µM

Supply measured IC50 of `O=C(CSc1nc2ccccc2[nH]1)N/N=C/c1ccccc1I` in your reply.
10 to 100 µM

Supply measured IC50 of `C/C(=N/NC(=O)CSc1nc2ccccc2[nH]1)c1ccncc1` in your reply.
> 100 µM

Supply measured IC50 of `C/C(=N\NC(=O)CSc1nc2ccccc2[nH]1)c1ccc([N+](=O)[O-])cc1` in your reply.
> 100 µM

Supply measured IC50 of `C/C(=N\NC(=O)CSc1nc2ccccc2[nH]1)c1ccc(Br)cc1` in your reply.
10 to 100 µM

Supply measured IC50 of `C/C(=N/NC(=O)CSc1nc2ccccc2[nH]1)c1cccnc1` in your reply.
0.1 to 1 µM

----------
Biological target: human sAC (Homo sapiens)
Construct: made in house
Assay: in vitro adenylyl cyclase assay with purified human sAC protein (cAMP by Correlate-EIA)
Assay type: biochemical
Settings: 100 μM of compound; BASAL human sAC in vitro activity; read-out: % Inhibition (100 μM), hsACt-Basal
Endpoint: inhibition at 100 µM
The reply should consist of the numeric value with the unit placed after it.

// solved cases for inhibition at 100 µM follow
Smiles entry: O=C(CSc1nc2ccccc2n1Cc1ccccc1)N/N=C/c1cc(Br)ccc1O
Target of assay: human sAC (Homo sapiens)
Observed measurement: 80%
//
Smiles entry: O=C(CSc1nc2ccccc2[nH]1)N/N=C/c1c(Cl)cccc1Cl
Target of assay: human sAC (Homo sapiens)
Observed measurement: 50%
//
Smiles entry: CCOc1ccc(/C=N/NC(=O)CSc2nc3ccccc3[nH]2)cc1OC
Target of assay: human sAC (Homo sapiens)
Observed measurement: 0%

Supply measured inhibition at 100 µM of `Cc1ccc(Cn2c(SCC(=O)N/N=C/c3cc(Br)ccc3O)nc3ccccc32)cc1` in your reply.
75%

----------
Target: human sAC (Homo sapiens, UniProt Q96PN6)
Construct: made in house
Test: cellular cAMP accumulation assay in 4-4 cells (hsACt stably transfected into 293T), IBMX
Assay type: cell-based
Conditions: stable cell line overexpressing human sAC; 500 μM IBMX; read-out: 4-4, Basal approximate IC50 (or the dose range where the IC50 should lie)
pIC50: −log10 of the molar value.
Endpoint: pIC50

// solved cases for pIC50 follow
Smiles entry: CCCOc1ccc(/C=N/NC(=O)CSc2nc3ccccc3[nH]2)cc1
Target of assay: human sAC (Homo sapiens, UniProt Q96PN6)
Observed measurement: 4.52 to 5.52

Smiles entry: C/C(=N/NC(=O)CSc1nc2ccccc2[nH]1)c1ccncc1
Target of assay: human sAC (Homo sapiens, UniProt Q96PN6)
Observed measurement: 3.30 to 3.78

Smiles entry: C/C(=N\NC(=O)CSc1nc2ccccc2[nH]1)c1ccccc1
Target of assay: human sAC (Homo sapiens, UniProt Q96PN6)
Observed measurement: 4.22 to 4.52

Attention now shifts to the item below.
// output pIC50; input `C/C(=N\NC(=O)CSc1nc2ccccc2[nH]1)c1ccco1` ; system human sAC (Homo sapiens, UniProt Q96PN6)
~3.92
